B1: HEEH_KT_rd6_0007 (parent)
chain: SIEEEIKKAEEAKEKGKTFIHGDFVATTEELLDELLKRLRKKL

# Variants of: B1
# procedure details: folding stability dG (cDNA display proteolysis); higher = more stable
# test conditions: PBS, room temperature
Record form. Attribute: folding stability dG. Fill in for each entry.

The recorded folding stability dG for `L32P` is 0.168 kcal/mol

The recorded folding stability dG for `K37F` is 0.924 kcal/mol

The recorded folding stability dG for `T27L` is 1.22 kcal/mol

The recorded folding stability dG for `G22N` is 0.979 kcal/mol

The recorded folding stability dG for `K7N` is 0.942 kcal/mol

The recorded folding stability dG for `E5G` is 0.897 kcal/mol

The recorded folding stability dG for `K17Y` is 1.71 kcal/mol

The recorded folding stability dG for `D33V` is 1.17 kcal/mol

The recorded folding stability dG for `E34M` is 1.3 kcal/mol

The recorded folding stability dG for `R40P` is -0.336 kcal/mol

The recorded folding stability dG for `A26G` is 0.7 kcal/mol

The recorded folding stability dG for `T18M` is 1.32 kcal/mol

The recorded folding stability dG for `G16D` is 0.785 kcal/mol

The recorded folding stability dG for `T28Y` is 0.985 kcal/mol

The recorded folding stability dG for `T27V` is 1.09 kcal/mol

The recorded folding stability dG for `L35V` is 0.702 kcal/mol

The recorded folding stability dG for `L39I` is 0.845 kcal/mol

The recorded folding stability dG for `E11P` is 0.576 kcal/mol

The recorded folding stability dG for `A12F` is 0.689 kcal/mol

The recorded folding stability dG for `K17I` is 1.59 kcal/mol

The recorded folding stability dG for `L32C` is 0.637 kcal/mol

The recorded folding stability dG for `R38N` is 0.87 kcal/mol
